Recorded Fold IC50 pH 7.4 (Variant v Par0067), one value per entry.
molecular target: T1, recombinant biotinylated human PAR2 extracellular domain (residues 1-75), N-terminal AviTag, C-terminal Flag … (human, UniProt P55085 26-75, biotin on the AviTag (enzymatic biotinylation)); experiment: HTRF competition with Par0067 IgG, scFv
T1 construct: also called Bio-human-PAR2 ECD; human PAR2 ECD; not shown: N-terminal AviTag (Avidity LLC); C-terminal Flag and poly Histidine tags
T1 sequence (P55085 26-75): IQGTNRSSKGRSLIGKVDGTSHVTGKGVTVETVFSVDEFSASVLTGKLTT
State the answer as a number, implicitly in fold.

Sample answers from the record:
{"columns": ["BINDER", "REPORTED MEASUREMENT"],
 "data": [
  ["PaB670010 scFv (scFv, V domains shown, purified scFv; also called ZZ1DRB-B08) VH: EVQLLESGGGLVQPGGSLRLSCAASGFTFSSYAMNWVRQAPGKGLEWVSTISYSGSLIHYADSVKGRFTISRDNSKNTLYLQMNSLRAEDTAVYYCARINNDPMDVWGQGTLVTVSS VL: SIELTQPPSVSVSPGQTASITCSGDNLGKKYVQWYQQKPGQSPVLVIYDDSNRPSGIPERFSGSNSGNTATLTISGTQAMDEADYYCQTWDGNPTTGETNVFGGGTKLTVL", 4.7],
  ["PaB670085 scFv (scFv, V domains shown, purified scFv; also called ZZ1ODR-A02) VH: EVQLLESGGGLVQPGGSLRLSCAASGFTFSSYAMNWVRQAPGKGLEWVSTISYHGSHISYHHSHKGRFTISRDNSKNTLYLQMNSLRAEDTAVYYCARINNDPMDVWGQGTLVTVSS VL: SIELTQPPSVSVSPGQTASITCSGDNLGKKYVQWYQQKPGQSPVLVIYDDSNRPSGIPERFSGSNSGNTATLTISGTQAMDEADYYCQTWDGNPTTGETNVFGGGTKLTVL", 14.6],
  ["PaB670090 scFv (scFv, V domains shown, purified scFv; also called ZZ1ODR-F02) VH: EVQLLESGGGLVQPGGSLRLSCAASGFTFSSYAMNWVRQAPGKGLEWVSTISYHGHHISHADHVKHRFTISRDNSKNTLYLQMNSLRAEDTAVYYCARINNDPMDVWGQGTLVTVSS VL: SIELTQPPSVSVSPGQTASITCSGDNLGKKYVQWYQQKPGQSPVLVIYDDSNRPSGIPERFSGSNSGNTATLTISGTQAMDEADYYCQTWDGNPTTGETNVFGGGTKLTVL", 6.8]
]}

Fold IC50 pH 7.4 (Variant v Par0067) for PaB670091 scFv (scFv, V domains shown, purified scFv; also called ZZ1ODR-G02) VH: EVQLLESGGGLVQPGGSLRLSCAASGFTFSSYAMNWVRQAPGKGLEWVSTISHSGHLIHHHHSVKGRFTISRDNSKNTLYLQMNSLRAEDTAVYYCARINNDPMDVWGQGTLVTVSS VL: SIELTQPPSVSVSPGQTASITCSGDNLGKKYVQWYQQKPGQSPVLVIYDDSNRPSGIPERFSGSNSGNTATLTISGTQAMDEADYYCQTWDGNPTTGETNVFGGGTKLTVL ?
7.6

Dear colleague, I am looking for the recorded Fold IC50 pH 7.4 (Variant v Par0067) of the following binder: PaB670094 scFv (scFv, V domains shown, purified scFv; also called ZZ1ODS-B08) VH: EVQLLESGGGLVQPGGSLRLSCAASGFTFSSYAMNWVRQAPGKGLEWVSTISYHGHHISHADHHKGRFTISRDNSKNTLYLQMNSLRAEDTAVYYCARINNDPMDVWGQGTLVTVSS VL: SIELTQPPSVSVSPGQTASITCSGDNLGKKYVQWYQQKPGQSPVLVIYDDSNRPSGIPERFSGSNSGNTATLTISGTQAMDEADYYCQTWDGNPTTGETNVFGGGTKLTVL
22
